The values you see were collected from ChEMBL document CHEMBL1125599.

Molecular target: Muscarinic acetylcholine receptor
Experiment: Binding affinity to muscarinic acetylcholine receptor was determined in presence of [3H]OXO-M radioligand (in vitro)
Type: protein assay
Simple rule here: Ki less than 40 nM is YES, otherwise NO.

[[record]]
compound = "Cn1ccn(CC#CCn2ccnc2)c1=O"
assigned_label = "YES"

[[record]]
compound = "Cc1cncn1CC#CCN1CCCC1=O"
assigned_label = "YES"

[[record]]
compound = "CCOC(=O)N(C)C(C)C#CCN1CCCC1 (stereo not drawn)"
assigned_label = "YES"

[[record]]
compound = "CC(=O)NCC#CCn1ccnc1"
assigned_label = "NO"


Problem: Take the compound CC(=O)N(C)CC#CCn1ccnc1 and say whether its Ki is less than 40 nM.
Solution: YES

Problem: Quick check: does CC(=O)NCC#CCn1cncc1C have Ki under 40 nM?
Solution: NO

Problem: I'd appreciate it if you could check whether COC(=O)N(C)CC#CCN(C)C has Ki smaller than 40 nM.
Solution: YES

Problem: Determine whether this compound shows Ki lower than 40 nM (ties excluded): Cc1cncn1CC#CCN(C)C(=O)N(C)C
Solution: NO
